Tested on: Staphylococcus aureus SAU.399 (ATCC 43300), Methicillin and Oxacillin Resistant
Format: cell-based
Details: ATCC 43300
Measure name: Sa399 MIC (µg/mL)
Express your answer in µg/mL, writing the number without its unit.

What the record says about CC(C)Cc1ccc(C(C)C(=O)N[C@@H](Cc2c[nH]c3ccccc23)C(=O)N[C@H](CC(N)=O)C(=O)N[C@@H](CC(=O)O)C(=O)N[C@@H]2C(=O)NCC(=O)N[C@@H](CCCN)C(=O)N[C@@H](CC(=O)O)C(=O)N[C@H](C)C(=O)N[C@@H](CC(=O)O)C(=O)NCC(=O)N[C@H](CO)C(=O)N[C@@H]([C@H](C)CC(=O)O)C(=O)N[C@@H](CC(=O)c3ccccc3N)C(=O)O[C@@H]2C)cc1 (single isomer, unassigned) [45 isomer I] : Sa399 MIC is 8

###

Tested on: Staphylococcus aureus SAU.278, Daptomycin resistant mutant (D10)
Assay type: cell-based
Settings: MHBc with 50 mg/L calcium, 18-20 hours at 37° C.
Measure name: Sa278 MIC (µg/mL)
Express your answer in µg/mL, writing the number without its unit.

// below: answered compounds
Compound	Measure name	Recorded value
C[C@H](CC(=O)O)[C@@H]1NC(=O)[C@@H](CO)NC(=O)CNC(=O)[C@H](CC(=O)O)NC(=O)[C@@H](C)NC(=O)[C@H](CC(=O)O)NC(=O)[C@H](CCCN)NC(=O)CNC(=O)[C@@H](NC(=O)[C@H](CC(=O)O)NC(=O)[C@@H](CC(N)=O)NC(=O)[C@H](Cc2c[nH]c3ccccc23)NC(=O)CCCCC2CCCCC2)[C@@H](C)OC(=O)[C@H](CC(=O)c2ccccc2N)NC1=O [Compound 24]	Sa278 MIC	8
CCCCCCCCOc1ccc(C(=O)N[C@@H](Cc2c[nH]c3ccccc23)C(=O)N[C@H](CC(N)=O)C(=O)N[C@@H](CC(=O)O)C(=O)N[C@@H]2C(=O)NCC(=O)N[C@@H](CCCN)C(=O)N[C@@H](CC(=O)O)C(=O)N[C@H](C)C(=O)N[C@@H](CC(=O)O)C(=O)NCC(=O)N[C@H](CO)C(=O)N[C@@H]([C@H](C)CC(=O)O)C(=O)N[C@@H](CC(=O)c3ccccc3N)C(=O)O[C@@H]2C)cc1 [Compound 36]	Sa278 MIC	1.00

Now let's try a different one.
What the record says about CCCCCCCOc1ccc(-c2ccc(C(=O)N[C@@H](Cc3c[nH]c4ccccc34)C(=O)N[C@H](CC(N)=O)C(=O)N[C@@H](CC(=O)O)C(=O)N[C@@H]3C(=O)NCC(=O)N[C@@H](CCCN)C(=O)N[C@@H](CC(=O)O)C(=O)N[C@H](C)C(=O)N[C@@H](CC(=O)O)C(=O)NCC(=O)N[C@H](CO)C(=O)N[C@@H]([C@H](C)CC(=O)O)C(=O)N[C@@H](CC(=O)c4ccccc4N)C(=O)O[C@@H]3C)cc2)cc1 [Compound 63] : Sa278 MIC is 0.25

###

Listing: Sa278 MIC of selected compounds
System: Staphylococcus aureus SAU.278, Daptomycin resistant mutant (D10)
Format: cell-based
Settings: MHBc with 50 mg/L calcium, 18-20 hours at 37° C.
Express your answer in µg/mL, writing the number without its unit.

Compound	Sa278 MIC (µg/mL)
CCCCCCCCCCCC(=O)N[C@@H](Cc1c[nH]c2ccccc12)C(=O)N[C@H](CC(N)=O)C(=O)N[C@@H](CC(=O)O)C(=O)N[C@@H]1C(=O)NCC(=O)N[C@@H](CCCN)C(=O)N[C@@H](CC(=O)O)C(=O)N[C@H](C)C(=O)N[C@@H](CC(=O)O)C(=O)NCC(=O)N[C@H](CO)C(=O)N[C@@H]([C@H](C)CC(=O)O)C(=O)N[C@@H](CC(=O)c2ccccc2N)C(=O)O[C@@H]1C [Compound 3]	1
C[C@H](CC(=O)O)[C@@H]1NC(=O)[C@@H](CO)NC(=O)CNC(=O)[C@H](CC(=O)O)NC(=O)[C@@H](C)NC(=O)[C@H](CC(=O)O)NC(=O)[C@H](CCCN)NC(=O)CNC(=O)[C@@H](NC(=O)[C@H](CC(=O)O)NC(=O)[C@@H](CC(N)=O)NC(=O)[C@H](Cc2c[nH]c3ccccc23)NC(=O)c2ccc(-c3ccc(-c4ccccc4)cc3)s2)[C@@H](C)OC(=O)[C@H](CC(=O)c2ccccc2N)NC1=O [Compound 52]	0.5
CC(C)CCCCCCCCCC(=O)N[C@@H](Cc1c[nH]c2ccccc12)C(=O)N[C@H](CC(N)=O)C(=O)N[C@@H](CC(=O)O)C(=O)N[C@@H]1C(=O)NCC(=O)N[C@@H](CCCN)C(=O)N[C@@H](CC(=O)O)C(=O)N[C@H](C)C(=O)N[C@@H](CC(=O)O)C(=O)NCC(=O)N[C@H](CO)C(=O)N[C@@H]([C@H](C)CC(=O)O)C(=O)N[C@@H](CC(=O)c2ccccc2N)C(=O)O[C@@H]1C [Compound 10]	1
CCCCCCCCCC(C)(C)C(=O)N[C@@H](Cc1c[nH]c2ccccc12)C(=O)N[C@H](CC(N)=O)C(=O)N[C@@H](CC(=O)O)C(=O)N[C@@H]1C(=O)NCC(=O)N[C@@H](CCCN)C(=O)N[C@@H](CC(=O)O)C(=O)N[C@H](C)C(=O)N[C@@H](CC(=O)O)C(=O)NCC(=O)N[C@H](CO)C(=O)N[C@@H]([C@H](C)CC(=O)O)C(=O)N[C@@H](CC(=O)c2ccccc2N)C(=O)O[C@@H]1C [Compound 12]	8

What the record says about CCCCCCOc1ccc(/C=C/C(=O)N[C@@H](Cc2c[nH]c3ccccc23)C(=O)N[C@H](CC(N)=O)C(=O)N[C@@H](CC(=O)O)C(=O)N[C@@H]2C(=O)NCC(=O)N[C@@H](CCCN)C(=O)N[C@@H](CC(=O)O)C(=O)N[C@H](C)C(=O)N[C@@H](CC(=O)O)C(=O)NCC(=O)N[C@H](CO)C(=O)N[C@@H]([C@H](C)CC(=O)O)C(=O)N[C@@H](CC(=O)c3ccccc3N)C(=O)O[C@@H]2C)cc1 [Compound 42] : Sa278 MIC is 4

###

Test system: Enterococcus faecium EFM.384, Daptomycin resistant mutant (14-A)
Assay type: cell-based
Details: MHBc with 50 mg/L calcium, 18-20 hours at 37° C.
Measure name: Efm384 MIC (mg/L)
Express your answer in mg/L, writing the number without its unit.

What the record says about `CC(C)CCCCCCC(=O)N[C@@H](Cc1c[nH]c2ccccc12)C(=O)N[C@H](CC(N)=O)C(=O)N[C@@H](CC(=O)O)C(=O)N[C@@H]1C(=O)NCC(=O)N[C@@H](CCCN)C(=O)N[C@@H](CC(=O)O)C(=O)N[C@H](C)C(=O)N[C@@H](CC(=O)O)C(=O)NCC(=O)N[C@H](CO)C(=O)N[C@@H]([C@H](C)CC(=O)O)C(=O)N[C@@H](CC(=O)c2ccccc2N)C(=O)O[C@@H]1C` : Efm384 MIC is 32

###

Test system: Staphylococcus aureus SAU.278, Daptomycin resistant mutant (D10)
Type: cell-based
Conditions: MHBc with 50 mg/L calcium, 18-20 hours at 37° C.
Measure name: Sa278 MIC (µg/mL)
Express your answer in µg/mL, writing the number without its unit.

What the record says about CCCC1CCC(c2ccc(C(=O)N[C@@H](Cc3c[nH]c4ccccc34)C(=O)N[C@H](CC(N)=O)C(=O)N[C@@H](CC(=O)O)C(=O)N[C@@H]3C(=O)NCC(=O)N[C@@H](CCCN)C(=O)N[C@@H](CC(=O)O)C(=O)N[C@H](C)C(=O)N[C@@H](CC(=O)O)C(=O)NCC(=O)N[C@H](CO)C(=O)N[C@@H]([C@H](C)CC(=O)O)C(=O)N[C@@H](CC(=O)c4ccccc4N)C(=O)O[C@@H]3C)cc2)CC1 (single isomer, unassigned) [53 isomer II] : Sa278 MIC is 2

What the record says about `CCCCc1ccc(CC(=O)N[C@@H](Cc2c[nH]c3ccccc23)C(=O)N[C@H](CC(N)=O)C(=O)N[C@@H](CC(=O)O)C(=O)N[C@@H]2C(=O)NCC(=O)N[C@@H](CCCN)C(=O)N[C@@H](CC(=O)O)C(=O)N[C@H](C)C(=O)N[C@@H](CC(=O)O)C(=O)NCC(=O)N[C@H](CO)C(=O)N[C@@H]([C@H](C)CC(=O)O)C(=O)N[C@@H](CC(=O)c3ccccc3N)C(=O)O[C@@H]2C)cc1` : Sa278 MIC is 4

What the record says about `CCCCCCCCCCCCOc1ccc(C(=O)N[C@@H](Cc2c[nH]c3ccccc23)C(=O)N[C@H](CC(N)=O)C(=O)N[C@@H](CC(=O)O)C(=O)N[C@@H]2C(=O)NCC(=O)N[C@@H](CCCN)C(=O)N[C@@H](CC(=O)O)C(=O)N[C@H](C)C(=O)N[C@@H](CC(=O)O)C(=O)NCC(=O)N[C@H](CO)C(=O)N[C@@H]([C@H](C)CC(=O)O)C(=O)N[C@@H](CC(=O)c3ccccc3N)C(=O)O[C@@H]2C)cc1` : Sa278 MIC is 2.00
